Every entry's value here was drawn from patent US9234000B2.

# tgt: Human plasma kallikrein (Homo sapiens (Human), UniProt P03952)
# Sequence (P03952 391-638): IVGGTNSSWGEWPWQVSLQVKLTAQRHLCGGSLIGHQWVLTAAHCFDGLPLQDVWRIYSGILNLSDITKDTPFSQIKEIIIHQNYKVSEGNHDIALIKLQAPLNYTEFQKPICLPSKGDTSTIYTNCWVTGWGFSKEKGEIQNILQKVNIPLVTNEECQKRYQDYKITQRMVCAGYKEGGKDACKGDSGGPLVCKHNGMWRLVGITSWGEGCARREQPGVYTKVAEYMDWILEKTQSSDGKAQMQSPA
# Sequence (P03952 20-390 partner): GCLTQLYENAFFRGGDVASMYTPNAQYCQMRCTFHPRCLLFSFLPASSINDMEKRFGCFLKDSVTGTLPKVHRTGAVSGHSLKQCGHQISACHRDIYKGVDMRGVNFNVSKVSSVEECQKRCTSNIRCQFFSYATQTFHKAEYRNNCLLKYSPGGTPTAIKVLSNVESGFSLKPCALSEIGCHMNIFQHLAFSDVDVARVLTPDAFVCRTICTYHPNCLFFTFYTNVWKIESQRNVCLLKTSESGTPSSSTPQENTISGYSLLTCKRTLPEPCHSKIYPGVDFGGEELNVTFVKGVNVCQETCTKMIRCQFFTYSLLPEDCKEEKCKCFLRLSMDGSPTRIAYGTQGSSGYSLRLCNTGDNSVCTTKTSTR
# experiment_notes: Determination of the IC50 for plasma kallikrein
# Assay type: biochemical
# experimental_context: 37° C., substrate H-DPro-Phe-Arg-AFC, read-out: IC50 (human PKal)
hey, just use Satisfied if measured IC50 is less than 100 nM, otherwise Not satisfied

{"compound": "CCOc1ccc(C[C@@H](NC(=O)/C=C/c2ccccc2)C(=O)N[C@@H](Cc2ccccc2)C(=O)NCc2ccc(CN)cc2)cc1 [Example 96]", "assigned_label": "Not satisfied"}
{"compound": "CCOc1ccc(C[C@@H](NC(=O)c2ccncc2)C(=O)N[C@@H](Cc2csc3ccccc23)C(=O)NCc2ccc(CN)cc2)cc1 [Example 178]", "assigned_label": "Satisfied"}
{"compound": "CCOc1ccc(C[C@@H](NC(=O)c2sccc2Cl)C(=O)N[C@@H](Cc2cscn2)C(=O)NCc2ccc(CN)cc2)cc1 [Example 184]", "assigned_label": "Satisfied"}
{"compound": "NCc1ccc(CNC(=O)[C@H](Cc2ccccc2)NC(=O)[C@@H](Cc2ccc(OCc3ccc(Cl)cc3)cc2)NC(=O)c2ccccc2)cc1 [Example 128]", "assigned_label": "Not satisfied"}
{"compound": "CCOc1ccc(C[C@@H](NC(=O)c2sccc2Cl)C(=O)N[C@H](C(=O)NCc2ccc(CN)cc2)[C@H](O)c2ccccc2)cc1 [Example 198]", "assigned_label": "Satisfied"}
{"compound": "CCOc1ccc(C[C@@H](NC(=O)c2[nH]c(C)cc2C)C(=O)N[C@@H](Cc2ccccc2)C(=O)NCc2ccc(CN)cc2)cc1 [Example 191]", "assigned_label": "Satisfied"}
{"compound": "CCOc1ccc(C[C@@H](NC(=O)c2ccc(F)cc2)C(=O)N[C@@H](Cc2ccccc2)C(=O)NCc2ccc(CN)cc2)cc1 [Example 99]", "assigned_label": "Satisfied"}
{"compound": "CCOc1ccc(C[C@@H](NC(=O)c2cc(C)nn2C)C(=O)N[C@@H](Cc2ccccc2)C(=O)NCc2ccc(CN)cc2)cc1 [Example 82]", "assigned_label": "Not satisfied"}
{"compound": "CCOc1ccc(C[C@@H](NC(=O)c2ccccc2)C(=O)N[C@@H](Cc2csc3ccccc23)C(=O)NCc2ccc(CN)cc2)cc1 [Example 153]", "assigned_label": "Satisfied"}
{"compound": "CCOc1ccc(C[C@@H](NC(=O)c2ccccc2)C(=O)N[C@@H](Cc2ccccn2)C(=O)NCc2ccc(CN)cc2)cc1 [Example 140]", "assigned_label": "Satisfied"}
{"compound": "CCOc1ccc(C[C@@H](NC(=O)c2cnc(C)s2)C(=O)N[C@@H](Cc2ccccc2)C(=O)NCc2ccc(CN)cc2)cc1 [Example 112]", "assigned_label": "Not satisfied"}
{"compound": "CCOc1ccc(C[C@@H](NC(=O)Nc2ccccc2)C(=O)N[C@@H](Cc2ccccc2)C(=O)NCc2ccc(CN)cc2)cc1 [Example 69]", "assigned_label": "Not satisfied"}
{"compound": "CCOc1ccc(C[C@@H](NC(=O)c2ccc(Cl)c(Cl)c2)C(=O)N[C@@H](Cc2ccccc2)C(=O)NCc2ccc(CN)cc2)cc1 [Example 93]", "assigned_label": "Not satisfied"}
{"compound": "CCOc1ccc(C[C@@H](NC(=O)c2ccccc2)C(=O)N[C@@H](Cc2ccccc2)C(=O)NCc2ccc(CN)c(C)c2)cc1 [Example 182]", "assigned_label": "Satisfied"}
